Value source: the supplement of paper PMC9170038

# Test system: K4 kissing-loop RNA reporter;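 note: bound reporter read as fluorescence of individual clusters on recovered sequencing chips by microscopy, with normalized cluster intensities fitted with a binding model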
# assay.info: apparent KD of K4 kissing-loop reporter; higher = weaker reporter binding
# recorded.conditions: Eterna round: R107; input ligand: FMN 200 uM
observation.type: apparent KD of K4 kissing-loop reporter (nM)

{"columns": ["sequence.content", "observation.type", "unit", "value"],
 "data": [
  ["UUAGUCUAGAGAAGGAGCGCAGUGAUGUUGCGGUAUGUGAAAAUAUGUAUAUAAUAAUAAAUGCAGGUAGGUCGCUCUAGACAUU [AK2 Exc Arginine B]", "apparent KD of K4 kissing-loop reporter", "nM", 68.4],
  ["UGGAUAUAGUUUAGUCUGGUGAGGUCAGAUACCAGACUAGCGAUAGUCCCUUGGCAGCUGAUUAUGAUUGAGUGAUGUUCAAUCG [Theo A Ex t9]", "apparent KD of K4 kissing-loop reporter", "nM", 187],
  ["CCAUUCAUUUACGAUACCAGUCUAAUAUAUUUAAUCAAAACCCUCGCCGAGUGAUGUUCGGACCCUUGGCAGCGUCUGCGACAGG [cyycmullin]", "apparent KD of K4 kissing-loop reporter", "nM", 354],
  ["AAAUAUAGUGAUGUUAUAUAUAUAUGUGAUACCAGAGAAAGAAAACUCCCUUGGCAGCACGAGAGAGAAUUUUUUUUUUAUAUAU [AstrosSSTheA#1]", "apparent KD of K4 kissing-loop reporter", "nM", 362],
  ["UAAGAUAUGAGGGAUACCAGCCAUAAGGAAAGUGUGAUGAGUGAUGUUCUGACAAGCCAAGGCCCUUGGCAGCUUUAAUAGCAUC [whbob_SS_Theo_B_th76]", "apparent KD of K4 kissing-loop reporter", "nM", 271],
  ["UGGAUAUAGUGAUGUUAUAUAGAGAUGGAUACCAGCUAAGAGAAUGGCCCUUGGCAGCCGAAAGAAGUAUCAUUAGAGAAGAAUG [ExTheophyl.Ag]", "apparent KD of K4 kissing-loop reporter", "nM", 261],
  ["GCAGUCCGGACGGCCGCCACUAUCCGUAAAGUGAUGUUUUACGAACAAUCGAUUGCAUAUCAGAAUAGGACCGGGUCCGUCGACC [theeternabot_sameState_KL_Trp_B_15]", "apparent KD of K4 kissing-loop reporter", "nM", 228]
]}

---

# System: MS2 coat protein
# assay.info: apparent KD of MS2 coat protein; higher = weaker reporter binding
# recorded.conditions: Eterna round: R107; input ligand: tryptophan 2.4 mM

{"columns": ["sequence.content", "apparent KD of MS2 coat protein / nM"],
 "data": [
  ["AAAGGAAGGUAAAAUAAAACUACAUGUGAAGGAGCGCCCGAAAGGGCAGGUAGGUCGCACAUGAGGAUCACCCAUGUCCUUCCAA [ArgEX 6 #SwitchBubble]", 293],
  ["AUGAAGCUAAGAGAUACCAGUGACCACAGAUACAUGAGGAUCACCCAUGUCUCAAAUUGUCACCCUUGGCAGCUCACUAUCGAAG [theeternabot_sameState_MS2_Theo_B_29]", 10.2],
  ["UCGCGAGAGGGAAGGAGCGUCAGCUGAGUCACAUGAGGAUCACCCAUGUCGCACAUAGUGUGACAGGUAGGUCGCCCUCCGCCCU [Leinticees]", 157]
]}

---

We begin with a simple list: items and their reported apparent KD of MS2 coat protein.
# System: MS2 coat protein
# assay.info: apparent KD of MS2 coat protein; designed switch direction (-1 OFF switch, 1 ON switch): 1; higher = weaker reporter binding
# recorded.conditions: input ligand: none
observation.type: apparent KD of MS2 coat protein (nM)

{"columns": ["sequence.content", "unit", "value"],
 "data": [
  ["UGCUAGUGGGUAGGAUAUUUAGGAUAUGGGAAAGACUAAGUCUGUAGGUCACCUAACCCAGAAGGAGAGAAGGACCAUUCAGCU [pwkr ssNG2 2FMN + F9.27] (Eterna round: R96, puzzle: Same State NG 2)", "nM", 28.5],
  ["AAUCGUUUGAUAGGAUAUCGCUAUACAUGAGGAUCACCCAUGUUUACCACGCUGGUUUUUCGUACUGAGAAGGAUUCUGAUGAU [JL JR sub007 mod 7] (Eterna round: R96, puzzle: Same State NG 2)", "nM", 42.5],
  ["UUGAAGAAUUAAGGAUAUCGAGUACAUAUGUUAAACAUGAGGAUCACCCAUGUGGGUUGCGGUAUCGAGAAGGUAAAAUACAAG [Mat - Same State NG 2 - JL mod - D58] (Eterna round: R96, puzzle: Same State NG 2)", "nM", 33.8]
]}

---

# System: MS2 coat protein
# assay.info: apparent KD of MS2 coat protein, switch OFF state (with FMN for OFF switches, without FMN for ON switches); designed switch direction (-1 OFF switch, 1 ON switch): 1; higher = weaker reporter binding
# recorded.conditions: FMN input: 0 or 200 uM; Eterna round: R93 (includes R88 designs)
observation.type: apparent KD of MS2 coat protein

{"columns": ["sequence.content", "target.under.test", "value"],
 "data": [
  ["AAAUAACAUGAGGAUCACCCAUGUUGCAACGGUAGAGGAUAUGUGGGUGAAAAUAGCAUGGCAGAAGGCUAGUGUA [SameState1 Malc#28]", "MS2 coat protein", "110 nM"],
  ["AUAAGAAAAACACAGGAUAUCCAAAAGAAAACAUGAGGAUCACCCAUGUAAAGAAAAUAAAAAUGGGAGAAGGGUGAAAAUAAUA [Mat - Same State 2 - JL mod - D32]", "MS2 coat protein", "62.2 nM"],
  ["GAGGACAUAGUAUAGGAUAUAUGAAUAGUUACAUGAGGAUCACCCAUGUGCAUUUAUAUGCGAACAUAGAAGGGUGGUAGUUAUC [SameState2 Malc#31]", "MS2 coat protein", "75.1 nM"],
  ["GUAGAACAUGAGGAUCACCCAUGUGAAGACGCAUGAGGAUAUAUAAGUAAAUAGCAUAAGAUAGAAGGCAUGAUAA [JR_SS001_Sub1702]", "MS2 coat protein", "113 nM"],
  ["AUAAAACAUGAGGAUCACCCAUGUCAAGAGUAUUAAGGAUAUGAGCCAGGGAACUGGCGAUCAGAAGGUGAGACUC [Atxerexebe]", "MS2 coat protein", "46.7 nM"],
  ["GUAGAACAUGAGGAUCACCCAUGUGAGUACAGUGUAGGAUAUGGGCAUGAGAAGUCAUUUCUAGAAGGGCAAAUAA [Raatbiin]", "MS2 coat protein", "112 nM"],
  ["GUAGACAUAGUUCAGGAUAUAUGAAUAGUCACAUGAGGAUCACCCAUGUCCAUUUAUAUGGGCACAUAGAAGGGAGGUAGUUAAC [Mat - Same state - Malcolm Mod - D123]", "MS2 coat protein", "1140 nM"],
  ["AAUAUACAUGAGGAUCACCCAUGUUAGGUGGGUCAAGGAUAUCAAUAUAAAUAAAAAACUUGAGAAGGUGAAUAAA [JR_SS001_Sub019]", "MS2 coat protein", "155 nM"],
  ["AAGAAACAUGAGGAUCACCCAUGUAGAAAUAUGGGAGGAUAUACAAGGACGGAAGUCAAGGUAGAAGGCCUAAGAA [Mat - Same State 1 - Meechl mod - D133]", "MS2 coat protein", "112 nM"],
  ["AAGAAACAUGAGGAUCACCCAUGUAAGAUAAACACAGGAUAUGCGAAAAUAAACAAAUAAGCAGAAGGGUGAAGAA [Mat - Same State 1 - Tesla mod - 65]", "MS2 coat protein", "28.1 nM"],
  ["AAAAAAAAGGGUGAGGAUAUAGAAAAAAAAACAUGAGGAUCACCCAUGUGAAAAAAAAAAAAAAGCUAGAAGGCACAAAAAAAAAA [Same State 2]", "MS2 coat protein", "159 nM"],
  ["AAUCCACAUGAGGAUCACCCAUGUCAGGAAAUGACAGGAUAUAGCGAAAAAAAAAAAAAGCUAGAAGGGUCUAAUU [SameState1-cac2]", "MS2 coat protein", "107 nM"],
  ["GGAAAACAUGAGGAUCACCCAUGUGAAAACGUGGGAGGAUAUGCAUGGAAACCAUACUGUGCAGAAGGCCCAUGUC [EteRNA is fun!]", "MS2 coat protein", "59.4 nM"],
  ["AUAAGACAUGAGGAUCACCCAUGUAUAAGAGCAUGAGGAUAUAUGAAAAGUAAUAGGAGGAUAGAAGGCAUGGUUG [JR_SS001_Sub1219]", "MS2 coat protein", "102 nM"],
  ["GGGAGGAAGAGAGAGGAUAUCCAAAGGAAAACAUGAGGAUCACCCAUGUAAAAGGUAGGAAAUUGGGAGAAGGCUCAAGAGAAUG [salish99-ss2-055]", "MS2 coat protein", "28.3 nM"],
  ["AAAAAACAUGAGGAUCACCCAUGUCAAAAGACGUGAGGAUAUGUACAGACUUCGGUCUGUACAGAAGGCACAAAAA [SS1 - 1031]", "MS2 coat protein", "40.3 nM"],
  ["AAAAAACAUGAGGAUCACCCAUGUGGGAAUAUGGAAGGAUAUACAAAGACGAAAGUCAAAGUAGAAGGUCUAAAAG [76%, Meechl 2]", "MS2 coat protein", "41.9 nM"],
  ["AGAUCUAGAAGGUAGGAUAUGUGAAAAAAUACAUGAGGAUCACCCAUGUGAUGAAUAAAAAGAAAAUAGAAGGACCAUCUAGAUC [Cross swing 2]", "MS2 coat protein", "40.7 nM"],
  ["CGGCUACAUGAGGAUCACCCAUGUCAGCCGAGGGCAGGAUAUGCGGUUCAUUCUCAAGCAGCAGAAGGGUCAAAAG [Onmabiat]", "MS2 coat protein", "8.83 nM"],
  ["AAAACACAUGAGGAUCACCCAUGUAAAAACAAGAGAGGAUAUGCUUGGAAAACAUGCUAUGCAGAAGGCUCAAGUG [SS1 - 10]", "MS2 coat protein", "24.5 nM"],
  ["AAAAAACAUGAGGAUCACCCAUGUAAUACAACAUCAGGAUAUUGGCUUUACUAUGUAUUACAAGAAGGGAUGAAAA [Same State 1.3c (Same State 1 - Omei 2 )]", "MS2 coat protein", "53.8 nM"],
  ["AAAAGACAUGAGGAUCACCCAUGUCAAAACGUAGGAGGAUAUGUCUUGAAAAAAGACUUGACAGAAGGCCUGUGUC [SS1 - 54]", "MS2 coat protein", "17 nM"]
]}
